Molecular target: T1, human CD20 (human, UniProt P11836 1-297)
T1 sequence: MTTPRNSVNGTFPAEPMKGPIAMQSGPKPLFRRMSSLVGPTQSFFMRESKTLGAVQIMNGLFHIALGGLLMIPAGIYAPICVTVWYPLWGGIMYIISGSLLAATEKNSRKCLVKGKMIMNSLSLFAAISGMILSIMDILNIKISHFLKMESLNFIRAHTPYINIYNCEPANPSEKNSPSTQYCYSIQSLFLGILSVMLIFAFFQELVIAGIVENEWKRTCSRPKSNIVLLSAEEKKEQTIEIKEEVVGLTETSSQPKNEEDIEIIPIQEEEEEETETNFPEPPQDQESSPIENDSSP
Experiment: cell-based or functional assay
REPORTED_METRIC: % Cytotoxicity (CDC, Daudi), 6 hour (%)
API: value field is a number in %; no unit string.

Worked examples follow.
BINDER: rituximab (RITUXAN, IDEC Pharmaceuticals Corp.) (antibody, V domains shown) VH: QVQLQQPGAELVKPGASVKMSCKASGYTFTSYNMHWVKQTPGRGLEWIGAIYPGNGDTSYNQKFKGKATLTADKSSSTAYMQLSSLTSEDSAVYYCARSTYYGGDWYFNVWGAGTTVTVSA VL: QIVLSQSPAILSASPGEKVTMTCRASSSVSYIHWFQQKPGSSPKPWIYATSNLASGVPVRFSGSGSGTSYSLTISRVEAEDAATYYCQQWTSNPPTFGGGTKLEIK
VALUE_REPORTED: 20.5

BINDER: 9H4-12 (antibody, V domains shown, Fully human IgG, constant region not specified; also called 9H4-12N) VH: EVQLVESGGGLVQPGRSLRLSCAASGFTFDDYAMHWVRQVPGKGLEWVSGISWNSGSIGYADSVKGRFTISRDNAKNSLYLQMNSLRAEDTALYYCAKDMGYGNYYHYGMDVWGQGTTVTVSS VL: DIVLTQSPATLSLSPGERATLSCRASQSVSSYLAWYQQKPGQAPRLLICDASHRATRIPARFSGSGSGTDFTLTISSLEPEDFAVYYCQQRSNWPITFGQGTRLEIK
VALUE_REPORTED: 23.1

BINDER: 2C11-4 (antibody, V domains shown, Fully human IgG, constant region not specified; also called 2C11-4N) VH: EVQLVESGGGLVQPGRSLRLSCAASGFTFRDYAMHWVRQGPGKGLEWVSGISWNTDYIGYADSVKGRFTISRDNAKNSLYLQMNSLRPEDTALYYCAKDARYGRDNYYGMDVWGQGTTVTVSS VL: EIVLTQSPATLSLSPGERATLSCRASQSVSRYLAWYQQKPGQAPRLLIHDASNRATGIPARFSGSGSGTDFTLTITSLEPEDFVVYYCQQRSDWPITFGQGTRLEIK
VALUE_REPORTED: 22.4

Let us move to another entry and its % Cytotoxicity (CDC, Daudi), 6 hour.
Form field % Cytotoxicity (CDC, Daudi), 6 hour, entry 3B9-10 (antibody, V domains shown, Fully human IgG, constant region not specified; also called 3B9-10N) VH: EVQLVESGGGLVQPGRSLRLSCVASGFTFNDYAMHWVRQAPGKGLEWVSVISWNSDSIGYADSVKGRFTISRDNAKNSLYLQMHSLRAEDTALYYCAKDNHYGSGSYYYYQYGMDVWGQGTTVTVSS VL: EIVMTQSPATLSVSPGERATLSCRASQSVSSNLAWYQQKPGQAPRLLIYGTSTRATGIPARFSGSGSGTEFTLTISSLQSEDFAVYYCQQYNNWPLTFGGGTKVEIK : 82.2
